Reported GI50 by item:
- Tested on: T-Rex 293 cell line SC3 cells lacking increased expression of androgen receptor protein
- Protocol details: Cellular growth inhibition, T-Rex 293 SC3 cells without doxycycline, CellTiter-Glo
- Type: cell-based
- Test settings: 72 h, T-Rex 293 SC3 cells not exposed to doxycycline, CellTiter-Glo 2.0

Sample records with GI50:
Compound	GI50
Cc1sc2c(c1C)C(c1ccc(C[C@H]3C[C@@]4(CN(c5ncc(C(=O)N[C@H]6C(C)(C)[C@H](Oc7ccc(C#N)c(Cl)c7)C6(C)C)cn5)CCO4)C3)cc1)=N[C@@H](Cc1ncco1)c1nnc(C)n1-2 [Compound I-244]	> 3 µM
Cc1sc2c(c1C)C(c1ccc(-c3cc(C4CCN(c5ncc(C(=O)N[C@H]6C(C)(C)[C@H](Oc7ccc(C#N)c(Cl)c7)C6(C)C)cn5)CC4)cs3)cc1)=N[C@@H](Cc1ncco1)c1nnc(C)n1-2 [Compound I-480]	> 3 µM
Cc1sc2c(c1C)C(c1ccc(CCCOC3CCN(c4ncc(C(=O)N[C@H]5C(C)(C)[C@H](Oc6ccc(C#N)c(Cl)c6)C5(C)C)cn4)CC3)cc1)=C[C@H](Cc1cccnc1)c1nnc(C)n1-2 [Compound I-246]	> 3 µM
Cc1sc2c(c1C)C(c1ccc(CCN3CC[C@@]4(C3)CN(c3ncc(C(=O)N[C@H]5C(C)(C)[C@H](Oc6ccc(C#N)c(Cl)c6)C5(C)C)cn3)CCO4)cc1)=N[C@@H](Cc1ncco1)c1nnc(C)n1-2 [Compound I-243]	< 0.5 µM
Cc1sc2c(c1C)C(c1ccc(CCCN3CC4(C3)CN(c3ncc(C(=O)N[C@H]5C(C)(C)[C@H](Oc6ccc(C#N)c(Cl)c6)C5(C)C)cn3)C4)cc1)=N[C@@H](C)c1nnc(C)n1-2 [Compound I-348]	1.5 to 3 µM
Cc1sc2c(c1C)C(c1ccc(CN3CC[C@]4(CCCN(c5ncc(C(=O)N[C@H]6C(C)(C)[C@H](Oc7ccc(C#N)c(Cl)c7)C6(C)C)cn5)C4)C3)cc1)=N[C@@H](Cc1ncco1)c1nnc(C)n1-2 [Compound I-145]	< 0.5 µM

Short answer for Cc1sc2c(c1C)C(c1ccc(OC3CN(CC4CCN(c5ncc(C(=O)N[C@H]6C(C)(C)[C@H](Oc7ccc(C#N)c(Cl)c7)C6(C)C)cn5)CC4)C3)cc1)=N[C@@H](Cc1ncco1)c1nnc(C)n1-2 [Compound I-168] : GI50 was > 3 µM

Short answer for Cc1sc2c(c1C)C(c1ccc(CC3CC(C4CCN(c5ncc(C(=O)N[C@H]6C(C)(C)[C@H](Oc7ccc(C#N)c(Cl)c7)C6(C)C)cn5)CC4)C3)cc1)=NC(Cc1ncco1)c1nnc(C)n1-2 (stereo partly drawn) [Compound I-136] : GI50 was > 3 µM

Short answer for Cc1sc2c(c1C)C(c1ccc(N3CCO[C@@H](CNc4ncc(C(=O)N[C@H]5C(C)(C)[C@H](Oc6ccc(C#N)c(Cl)c6)C5(C)C)cn4)C3)cc1)=NC(Cc1ncco1)c1nnc(C)n1-2 (stereo partly drawn) [Compound I-669] : GI50 was < 0.5 µM

---

- Tested on: T-Rex 293 cell line SC3 cells lacking increased expression of androgen receptor protein
- Protocol details: Cellular growth inhibition, T-Rex 293 SC3 cells without doxycycline, CellTiter-Glo
- Format: cell-based
- Test settings: 72 h, T-Rex 293 SC3 cells not exposed to doxycycline, CellTiter-Glo 2.0
Endpoint name: GI50

Sample records with GI50:
Molecule	GI50
Cc1sc2c(c1C)C(c1ccc(N[C@@H]3CCC[C@H](Nc4ncc(C(=O)N[C@H]5C(C)(C)[C@H](Oc6ccc(C#N)c(Cl)c6)C5(C)C)cn4)C3)cc1)=NC(Cc1ncco1)c1nnc(C)n1-2 (stereo partly drawn)	< 0.5 µM
CCNC(=O)C[C@@H]1N=C(c2ccc(N3CCN(CC4CCN(c5ncc(C(=O)N[C@H]6C(C)(C)[C@H](Oc7ccc(C#N)c(Cl)c7)C6(C)C)cn5)CC4)CC3)cc2)c2c(sc(C)c2C)-n2c(C)nnc21	< 0.5 µM

Short answer for Cc1sc2c(c1C)C(c1ccc(N3CCC(C(=O)NCc4ncc(C(=O)N[C@H]5C(C)(C)[C@H](Oc6ccc(C#N)c(Cl)c6)C5(C)C)cn4)CC3)cc1)=N[C@@H](Cc1ncco1)c1nnc(C)n1-2 : GI50 was 0.5 to 1.5 µM

Short answer for Cc1sc2c(c1C)C(c1ccc(OCCOCCOCCOC3CCN(c4ncc(C(=O)N[C@H]5C(C)(C)[C@H](Oc6ccc(C#N)c(Cl)c6)C5(C)C)cn4)CC3)cc1)=N[C@@H](CC(=O)O)c1nnc(C)n1-2 : GI50 was > 3 µM

Short answer for CCNC(=O)C[C@@H]1N=C(c2ccc(OC3CCN(c4ncc(C(=O)N[C@H]5C(C)(C)[C@H](Oc6ccc(C#N)c(Cl)c6)C5(C)C)cn4)CC3)cc2)c2c(sc(C)c2C)-n2c(C)nnc21 : GI50 was 1.5 to 3 µM

Short answer for CCNC(=O)C[C@@H]1N=C(c2ccc(CCC3CN(c4ncc(C(=O)N[C@H]5C(C)(C)[C@H](Oc6ccc(C#N)c(Cl)c6)C5(C)C)cn4)C3)cc2)c2c(sc(C)c2C)-n2c(C)nnc21 : GI50 was 0.5 to 1.5 µM

Short answer for Cc1sc2c(c1C)C(c1ccc(Cl)cc1)=N[C@@H](CC(=O)NCCOCCCOC1CCN(c3ncc(C(=O)N[C@H]4C(C)(C)[C@H](Oc5ccc(C#N)c(Cl)c5)C4(C)C)cn3)CC1)c1nnc(C)n1-2 : GI50 was 0.5 to 1.5 µM

Short answer for Cc1sc2c(c1C)C(c1ccc(N3CC(CC4CCN(c5ncc(C(=O)N[C@H]6C(C)(C)[C@H](Oc7ccc(C#N)c(Cl)c7)C6(C)C)cn5)CC4)C3)cc1)=N[C@@H](C)c1nnc(C)n1-2 : GI50 was > 3 µM

Data origin: patent US20260062422A1
